Parameter pKd: see the listing below.
- Tested target: T1, FXR1 tandem Tudor domains (amino acids 2 to 132 of Fragile X Mental Retardation Syndrome-related Protein 1) (UniProt P51114 2-132)
- T1 construct: Fragile X Mental Retardation Syndrome-related Protein 1 (FXR1), amino acids 2 to 132, tandem Tudor domains; residues 4 to 122 seen in the crystal structure; Cloned in pET-28a-MHL as His6-TEV-FXR1; The methods describe expression in minimal media with selenomethionine; also called FXR1 Tudor domains; NLS of FXR1; source: E. coli BL21 derivative with pRARE, purified (Ni-NTA, Superdex 75); not …
- T1 sequence (P51114 2-132): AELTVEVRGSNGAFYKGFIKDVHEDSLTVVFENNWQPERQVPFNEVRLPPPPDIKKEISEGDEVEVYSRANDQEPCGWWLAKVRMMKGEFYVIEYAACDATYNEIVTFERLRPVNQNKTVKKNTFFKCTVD
- Test method notes: fluorescence polarisation; fluoresceinated peptide at 100 nM; FXR1 (stock 1.03 mM) or FXR2 (stock 2.4 mM) in serial twofold dilutions from 1/2 to 1/1024; 20 mM Tris-Cl pH 8.0, 50 mM NaCl, 1 mM DTT; room temperature, 30 minutes
- Condition details: both partners purified
Where no end group is shown, it is not given here. Me3 = trimethyl-lysine (Kme3)
pKd is defined as minus the log10 of a concentration measured in mol/L.

Binder: GGAKRHRK(Me3)VLRD (also: fluorescein, position not given here, histone H4 tail peptide, K20 trimethylated; source: synthetic peptide (Tufts University Core Services)) [H4K20me3 peptide, fluoresceinated]
pKd: 3.16

Continue with the next binder.
What value of measured pKd is listed for ARTK(Me3)QTARKST (also: fluorescein, position not given here, histone H3 tail peptide, K4 trimethylated; source: synthetic peptide (Tufts University Core Services)) [H3K4me3 peptide] ?
3.18
